test system: LOX IMVI melanoma; experiment: NCI-60 one-dose screen, 48 h; settings: 10 µM unless noted
This is part of a sample that, as a whole, favours compounds with a hit. Of some 83,000 tested, about 20% had one in any assay. Calls of active or inactive are those of the source. Rule for the calls: active = growth percent below 10; inactive = the rest.
Respond using exactly one of the listed classes: active, inactive

In: State the result this test recorded for `CCCCn1c2cc(OCc3cn(-c4ccc(Cl)cc4)nn3)ccc2c2ccnc(C)c21` .
Out: inactive

In: State the result this test recorded for `C#Cc1ccccc1NC(=O)c1sc2nc3c(cc2c1N)CCCCCC3` .
Out: inactive

In: State the result this test recorded for `CCCn1c(N)c(C(N)=O)sc1=S` .
Out: inactive

In: State the result this test recorded for `COc1ccc(/C=C/C(=O)C(CC2CCC2)C(=O)/C=C/c2ccc(OC)c(OC)c2)cc1OC` .
Out: active

In: State the result this test recorded for FC(F)(F)c1ccc2c(Nc3cccc(C4CC(c5ccccc5)=NN4c4ccc(Cl)cc4)c3)ccnc2c1 (stereo not given) .
Out: active

In: State the result this test recorded for OCCNc1nc(NCCO)nc(Nc2ccc(C3=NN(c4cc(Cl)cc(Cl)c4)C(c4ccccc4)C3)cc2)n1 (stereo not given) .
Out: active

In: State the result this test recorded for `C=C1C(=O)O[C@H]2[C@H]1CC/C(COC(=O)c1cccnc1N)=C\CC[C@@]1(C)O[C@@H]21` .
Out: active

In: State the result this test recorded for `CC(C)NS(=O)(=O)c1cccc(-c2ccc3c4c(n(CCCN(C)C)c(=O)c3c2)-c2ccccc2C4=O)c1` .
Out: inactive

In: State the result this test recorded for `Cc1c(Cl)cccc1NC(=O)c1sc2nc3c(cc2c1N)CCCCCC3` .
Out: inactive

In: State the result this test recorded for `Cc1c(Cl)cccc1NC(=O)c1sc2nc3c(cc2c1N)CCCCC3` .
Out: inactive

In: State the result this test recorded for `CCOC(=O)c1c(C(F)(F)F)n([O-])c2ccc(Cl)cc2[n+]1=O` .
Out: active

In: State the result this test recorded for `CCCCCOC(=O)c1ccccc1O` .
Out: inactive

In: State the result this test recorded for COc1ccc(C2C(c3ccccc3)C(=O)N2c2cc(OC)c(OC)c(OC)c2)cc1I (stereo not given) .
Out: inactive

In: State the result this test recorded for `CCCCOc1nc2ccc(C)cc2cc1/C=C/C(=O)/C=C/c1ccc2c(c1)OCO2` .
Out: inactive

In: State the result this test recorded for `Cc1cc(C)c2nc(Nc3nc(C)c(C)c(=O)[nH]3)nc(C)c2c1` .
Out: active

In: State the result this test recorded for `Cc1cc2ccccc2c[n+]1CC(=O)c1ccc(-c2ccccc2)cc1` .
Out: inactive

In: State the result this test recorded for N#CC1(C#N)C2=C(CCCC2)NC(c2c(F)cccc2Cl)C1(C#N)C#N (stereo not given) .
Out: inactive

In: State the result this test recorded for `C=C1C(=O)O[C@H]2[C@H]1CC/C(COC(=O)N1CCC[C@H]1C(=O)Nc1ccc(OC)c(C(N)=O)c1O)=C\CC[C@@]1(C)O[C@@H]21` .
Out: inactive

In: State the result this test recorded for `COC(=O)CCc1cc(O)c2c(c1)[C@@H](C(=O)OC)[C@H](c1ccc(O)c(O)c1)O2` .
Out: inactive

In: State the result this test recorded for `Cc1c(Cl)cccc1NC(=O)c1sc2nc3c(cc2c1N)COCC3` .
Out: inactive

Data origin: PubChem BioAssay (NCI)
